Source: patent EP4707304A1

Target: T1, VLP-hCLDN6 (human, UniProt P56747 1-220)
T1 construct: also called VLP-CLDN6; AT-003-ag1
T1 sequence: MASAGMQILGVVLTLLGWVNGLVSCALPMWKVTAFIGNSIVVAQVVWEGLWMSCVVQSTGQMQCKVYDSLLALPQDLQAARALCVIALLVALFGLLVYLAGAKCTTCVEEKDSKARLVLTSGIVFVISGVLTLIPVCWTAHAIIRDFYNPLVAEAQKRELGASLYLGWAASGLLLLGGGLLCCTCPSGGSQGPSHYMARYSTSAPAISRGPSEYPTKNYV
Experiment: ELISA on coated VLP-hCLDN6
For each entry below, report its EC50 value.
Report as a plain number; the unit nM is understood.

Prompt line: What value of EC50 has been reported for the following binder? humanized antibody hAb-30 (antibody, V domains shown, also called VH2VL4 with HC S31E) VH: EVKLVESGGGLVKPGGSLRLSCAASGFTFNEYTMSWVRQTPAKRLEWVVTISSGGGRTYYPDSVKGRFTISRDNAKNTLYLQMSSLRAEDTAVYYCIRGDYRYDGFAYWGQGTLVTVSS VL: DIQMTQSPSSLSASVGDRVTITCRASENIDSYLAWYQQKPGKSPQLLVYASTLLVDGVPSRFSGSRSGTQFSLTISSLQPEDVARYYCQHYYSIPYTFGSGTKLEIK
Response line: 0.29

Prompt line: Record request: EC50 value, item humanized antibody hAb-44 (antibody, V domains shown, also called VH6VL5) VH: EVKLVESGGGLVKPGGSLRLSCAASGFTFNDYTMSWVRQAPGKRLEWVVTISSGGGRTYYPDSVKGRFTISRDNAKNSLYLQMNSLRAEDTAVYYCIRGDYRYDAFAYWGQGTLVTVSS VL: DIQMTQSPSSLSASVGDRVTITCRASENIDSYLAWYQQKPGKSPQLLVYASTLLQDGVPSRFSGSRSGTDFTLTISSLQPEDVATYYCQHYYSIPYTFGSGTKLEIK
Response line: 6.67

Prompt line: Dear colleague, I am looking for the recorded EC50 of the following binder: humanized antibody hAb-33 (antibody, V domains shown, also called VH2VL4 with HC G100A) VH: EVKLVESGGGLVKPGGSLRLSCAASGFTFNSYTMSWVRQTPAKRLEWVVTISSGGGRTYYPDSVKGRFTISRDNAKNTLYLQMSSLRAEDTAVYYCIRGDYRYDAFAYWGQGTLVTVSS VL: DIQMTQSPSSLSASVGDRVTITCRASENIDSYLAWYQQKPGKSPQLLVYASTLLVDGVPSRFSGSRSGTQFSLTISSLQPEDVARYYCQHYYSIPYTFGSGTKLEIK
Response line: 0.31

Prompt line: Any idea what EC50 was measured for humanized antibody hAb-29 (antibody, V domains shown, also called VH2VL4 with HC S31D) VH: EVKLVESGGGLVKPGGSLRLSCAASGFTFNDYTMSWVRQTPAKRLEWVVTISSGGGRTYYPDSVKGRFTISRDNAKNTLYLQMSSLRAEDTAVYYCIRGDYRYDGFAYWGQGTLVTVSS VL: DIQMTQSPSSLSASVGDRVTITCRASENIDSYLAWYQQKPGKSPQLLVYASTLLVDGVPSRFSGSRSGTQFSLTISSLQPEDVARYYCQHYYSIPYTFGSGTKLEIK ?
Response line: 0.29

Prompt line: Tell me the measured EC50 of humanized antibody hAb-28 (antibody, V domains shown, also called VH2VL4 with HC S31Q) VH: EVKLVESGGGLVKPGGSLRLSCAASGFTFNQYTMSWVRQTPAKRLEWVVTISSGGGRTYYPDSVKGRFTISRDNAKNTLYLQMSSLRAEDTAVYYCIRGDYRYDGFAYWGQGTLVTVSS VL: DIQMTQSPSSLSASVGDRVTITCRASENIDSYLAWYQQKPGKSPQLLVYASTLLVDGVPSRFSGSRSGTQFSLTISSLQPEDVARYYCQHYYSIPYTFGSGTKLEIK , please.
Response line: 0.19
